assay-remarks: total protein half-life in vivo (active degradation + dilution); higher = more stable protein
study-conditions: wild type E. coli NCM3722; growth: C-lim chemostat; doubling time 3 h
total protein half-life in vivo below 3 h gives NOT MET; total protein half-life in vivo at or above it gives MET.

residue-string: MDIIFYHPTFDTQWWIEALRKAIPQARVRAWKSGDNDSADYALVWHPPVEMLAGRDLKAVFALGAGVDSILSKLQAHPEMLNPSVPLFRLEDTGMGEQMQEYAVSQVLHWFRRFDDYRIQQNSSHWQPLPEYHREDFTIGILGAGVLGSKVAQSLQTWRFPLRCWSRTRKSWPGVQSFAGREELSAFLSQCRVLINLLPNTPETVGIINQQLLEKLPDGAYLLNLARGVHVVEDDLLAALDSGKVKGAMLDVFNREPLPPESPLWQHPRVTITPHVAAITRPAEAVEYISRTIAQLEKGERVCGQVDRARGY
answer-label: NOT MET

residue-string: MFILWYSASSTFGKDSDIVMGVRAQQKEKTRRSLVEAAFSQLSAERSFASLSLREVAREAGIAPTSFYRHFRDVDELGLTMVDESGLMLRQLMRQARQRIAKGGSVIRTSVSTFMEFIGNNPNAFRLLLRERSGTSAAFRAAVAREIQHFIAELADYLELENHMPRAFTEAQAEAMVTIVFSAGAEALDVGVEQRRQLEERLVLQLRMISKGAYYWYRREQEKTAIIPGNVKDE [P0ACU5]
answer-label: NOT MET

residue-string: MIVLPRRLSDEVADRVRALIDEKNLEAGMKLPAERQLAMQLGVSRNSLREALAKLVSEGVLLSRRGGGTFIRWRHDTWSEQNIVQPLKTLMADDPDYSFDILEARYAIEASTAWHAAMRATPGDKEKIQLCFEATLSEDPDIASQADVRFHLAIAEASHNIVLLQTMRGFFDVLQSSVKHSRQRMYLVPPVFSQLTEQHQAVIDAIFAGDADGARKAMMAHLSFVHTTMKRFDEDQARHARITRLPGEHNEHSREKNA [P0ACL7]
answer-label: NOT MET

residue-string: MNYQNDDLRIKEIKELLPPVALLEKFPATENAANTVAHARKAIHKILKGNDDRLLVVIGPCSIHDPVAAKEYATRLLALREELKDELEIVMRVYFEKPRTTVGWKGLINDPHMDNSFQINDGLRIARKLLLDINDSGLPAAGEFLDMITPQYLADLMSWGAIGARTTESQVHRELASGLSCPVGFKNGTDGTIKVAIDAINAAGAPHCFLSVTKWGHSAIVNTSGNGDCHIILRGGKEPNYSAKHVAEVKEGLNKAGLPAQVMIDFSHANSSKQFKKQMDVCADVCQQIAGGEKAIIGVMVESHLVEGNQSLESGEPLAYGKSITDACIGWEDTDALLRQLANAVKARRG [P0AB91]
answer-label: MET

residue-string: MERNKLARQIIDTCLEMTRLGLNQGTAGNVSVRYQDGMLITPTGIPYEKLTESHIVFIDGNGKHEEGKLPSSEWRFHMAAYQSRPDANAVVHNHAVHCTAVSILNRSIPAIHYMIAAAGGNSIPCAPYATFGTRELSEHVALALKNRKATLLQHHGLIACEVNLEKALWLAHEVEVLAQLYLTTLAITDPVPVLSDEEIAVVLEKFKTYGLRIEE [P0AB87]
answer-label: NOT MET
